assay: yeast display, Sf9 membrane polyspecificity reagent, FACS + sequencing; frameworks hold sequencing errors

- sequence: "QVQLVESGGGLVQAGGSLRLSCAASGRTFLWYDMGWYRQAPGKERELVAGITSDGITYYADSVKGRFTISRDNAKNTVNLQMNSLKPEDTAVYYCAADGIYPDAVYFGYPMYYWGQGTQVTVSS"
  polyreactivity (PSR sort gate): "low polyreactivity"
- sequence: "QVQLVESGGGLVQAGGSLRLSCAASGSIFRRYAMGWYRQAPGKERELVAAISWRGDSTYYADSVKGRFTISRDNAKNTVYLQMNSLIPEDTAVYYCAADYYRAGRYWGQRHGYDYWGQGTQVTVSS"
  polyreactivity (PSR sort gate): "low polyreactivity"
- sequence: "QVQLVESGGGLVQAGGILRLICAASGITFVSYGMVWYRQAPRKERELVAAITRSGGSTYYADSVKGRFTISRDNAKNTVYLQMNSLKPDDTAVYYCNARTRYASKGGGARWDSYGYWGQGTQVTVSS"
  polyreactivity (PSR sort gate): "high polyreactivity"
- sequence: "QVQLVESWGVLVQAGGSLRLSCAASGYTFLVYAMGWYRQAPGKERELVAGITRGSSTYADSVKGRFTISRDNAKNTVYLQMNSLKPEDTAVYYCAARFAKQDYDYWGQGTQVTVSS"
  polyreactivity (PSR sort gate): "high polyreactivity"
- sequence: "QVQLVESGGGLVQAGGSLRLSCAASGSIFAFYVMGWYRQAPGKERELVAAINRGGTNTYYADSVKGRFTISRDNGKNTVYLQMNSLKPEDTAVYYCAAQRYGGMDYWGQGTQVTVSS"
  polyreactivity (PSR sort gate): "high polyreactivity"

* * *

experiment: yeast display, Sf9 membrane polyspecificity reagent, FACS + sequencing; frameworks hold sequencing errors
quantity-name: polyreactivity (PSR sort gate)

- sequence: "QVQLVESGGGLVQAGGSLRLSCAASGRTFYFYTMGWYRQAPGKERELVAAISWSGGSTYYADSVKGRFTISRDNAKNTVYLQMISLKPEDTAVYYCAASSPWEQSNDQFYYWGQGTQVTVSS"
  quantity-name: "polyreactivity (PSR sort gate)"
  reported-result: "low polyreactivity"
- sequence: "QDQLVESGGGLVQAGGRLRLSCAASGSTVGVYAMGWYRQAPGKERELVAAISYTGGSSYYADSVKGRFTISRDNAKNTVYLQMNSLKPEDTAVYYCAVEVGYTDSPYSYDYWGQGTQVTVSS"
  quantity-name: "polyreactivity (PSR sort gate)"
  reported-result: "low polyreactivity"
- sequence: "QVQLVESGGGLVQAGGSLRLSCAASGLTFKSYAMGWNRQAPGKERELVAVISSSGGRTYYADSVKGRFTISRDNAKNTVYLQMNSLKPEDTAVYYCAADGSYGKWGGHAMYYLGQGTQVTVSS"
  quantity-name: "polyreactivity (PSR sort gate)"
  reported-result: "high polyreactivity"
- sequence: "QVQLVESGGGLVQAGGSLRLSCAASGSIFIANAMGWYRQAPGKERELVAAITLNGGSTYYADSVKGRFTISRDNAKNTVYLQMNSLKPEDTAVYYCAADWVWVAPQYWIDEYDYWGQGTQVTVSS"
  quantity-name: "polyreactivity (PSR sort gate)"
  reported-result: "low polyreactivity"
- sequence: "QVQLVESGGGLVQAGGSLRLSCAASGSTFWEYAMGWYRQAPGKEREFVAAISYRGGGTYYADSVKGRFTISRDNAKNTVYLQKNSLKPEDTAVYYCAARRWRGRYWGDYWGQGTQVTVSS"
  quantity-name: "polyreactivity (PSR sort gate)"
  reported-result: "high polyreactivity"
